# targetSystem: UniProt P08183
# Sequence (P08183 whole entry): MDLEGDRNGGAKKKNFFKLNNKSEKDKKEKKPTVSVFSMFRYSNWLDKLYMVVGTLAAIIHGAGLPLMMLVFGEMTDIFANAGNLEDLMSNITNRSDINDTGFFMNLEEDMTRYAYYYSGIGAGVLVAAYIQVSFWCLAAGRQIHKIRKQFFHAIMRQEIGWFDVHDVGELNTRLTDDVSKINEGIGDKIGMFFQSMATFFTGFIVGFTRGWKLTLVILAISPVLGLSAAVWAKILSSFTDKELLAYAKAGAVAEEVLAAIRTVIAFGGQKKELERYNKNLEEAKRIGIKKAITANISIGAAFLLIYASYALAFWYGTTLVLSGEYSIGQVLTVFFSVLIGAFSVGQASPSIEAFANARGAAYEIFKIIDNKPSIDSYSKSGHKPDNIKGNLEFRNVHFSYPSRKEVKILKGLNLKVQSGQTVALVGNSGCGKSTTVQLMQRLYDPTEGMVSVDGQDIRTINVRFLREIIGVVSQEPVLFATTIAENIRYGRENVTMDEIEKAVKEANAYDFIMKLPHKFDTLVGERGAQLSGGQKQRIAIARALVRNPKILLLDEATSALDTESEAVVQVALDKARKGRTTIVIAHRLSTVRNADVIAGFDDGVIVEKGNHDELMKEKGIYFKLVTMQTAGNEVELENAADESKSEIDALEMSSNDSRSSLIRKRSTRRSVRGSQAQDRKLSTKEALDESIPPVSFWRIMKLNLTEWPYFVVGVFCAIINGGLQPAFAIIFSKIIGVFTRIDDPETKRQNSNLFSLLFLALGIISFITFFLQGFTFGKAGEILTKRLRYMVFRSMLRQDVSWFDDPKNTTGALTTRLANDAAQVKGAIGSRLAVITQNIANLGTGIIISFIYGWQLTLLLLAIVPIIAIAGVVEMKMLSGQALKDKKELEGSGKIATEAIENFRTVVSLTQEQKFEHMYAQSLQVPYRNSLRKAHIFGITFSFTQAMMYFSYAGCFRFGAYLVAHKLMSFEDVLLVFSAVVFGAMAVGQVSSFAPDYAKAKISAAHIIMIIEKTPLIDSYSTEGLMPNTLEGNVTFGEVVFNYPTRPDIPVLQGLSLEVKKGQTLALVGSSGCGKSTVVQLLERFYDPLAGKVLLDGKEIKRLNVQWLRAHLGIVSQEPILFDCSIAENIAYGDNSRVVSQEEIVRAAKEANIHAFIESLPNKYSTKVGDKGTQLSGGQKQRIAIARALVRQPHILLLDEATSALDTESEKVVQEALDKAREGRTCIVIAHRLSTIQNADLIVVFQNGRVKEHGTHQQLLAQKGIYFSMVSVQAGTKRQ
# procedureSummary: In vitro P-gp inhibition: 3H-digoxin permeation across control and MDR1-expressing LLC-PK1 cell monolayers
resultType: IC50 (nM)

| compound | resultType | readingUnit | recordedValue |
| --- | --- | --- | --- |
| CNC(=O)c1ccc(N2C(=S)N(c3ccc(C#N)c(C(F)(F)F)c3)C(=O)C2(C)C)cc1F [Enzalutamide] | IC50 | nM | 1670 |

====

# procedureSummary: clinical
# conditions: human, plasma, po, 160 mg, Cmax, observed, single oral 160 mg enzalutamide; mean

| compound | Cmax [ng/mL] |
| --- | --- |
| CNC(=O)c1ccc(N2C(=S)N(c3ccc(C#N)c(C(F)(F)F)c3)C(=O)C2(C)C)cc1F [Enzalutamide] | 5660 |
